Examples of compounds with documented viability, T/C follow.
- Tested on: 349418-098-R-PDC complex spheroid viability;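 further: spheroids exposed to compound for seven days before viability readout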
- experimentalDetails: Anticancer human tumor 349418-098-R-PDC patient-derived lung adenocarcinoma cell line growth inhibition [RAS]
- condition: second compound 0.3 µM; first compound 1 µM; hits give low values
readoutLabel: viability, T/C (%)

INSERT INTO measurements (compound, readoutlabel, recordedmeasurement) VALUES
  ('C[C@@H](NC(=O)c1ncnc(N)c1Cl)c1ncc(C(=O)Nc2cc(C(F)(F)F)c(Cl)cn2)s1 + CCn1c(-c2cc(N3CCN(C)CC3)cnc2C(C)OC)c2c3cc(ccc31)-c1csc(n1)CC(NC(=O)C1CC1C)C(=O)N1CCCC(N1)C(=O)OCC(C)(C)C2', 'viability, T/C', 51.8),
  ('C=CC(=O)N1CCN(c2nc(OCC3CCCN3C)nc3c(F)c(-c4nc(N)cc(C)c4C(F)(F)F)c(Cl)cc23)C(C)C1 (centres undefined) + CCn1c(-c2cccnc2C(C)OC)c2c3cc(ccc31)N1CCOC(CC(NC(=O)C(C(C)C)N(C)C(=O)C3(F)CCN(C(=O)C#CC(C)(C)N(C)C)CC3)C(=O)N3CCCC(N3)C(=O)OCC(C)(C)C2)C1', 'viability, T/C', 80),
  ('NC1c2ccccc2OC12CCN(c1cnc3c(N4CCCc5ncccc54)n[nH]c3n1)CC2 (centres undefined) + CCn1c(-c2cc(N3CCN(C)CC3)cnc2C(C)OC)c2c3cc(ccc31)-c1csc(n1)CC(NC(=O)C1CC1C)C(=O)N1CCCC(N1)C(=O)OCC(C)(C)C2', 'viability, T/C', 93.9),
  ('Nc1ccn(C2OC(CO)C(O)C2(F)F)c(=O)n1 (centres undefined) + CCn1c(-c2cc(N3CCN(C)CC3)cnc2C(C)OC)c2c3cc(ccc31)-c1csc(n1)CC(NC(=O)C1CC1C)C(=O)N1CCCC(N1)C(=O)OCC(C)(C)C2', 'viability, T/C', 5.73);

Values from PubChem BioAssay AID2060904
